Every entry's value here was drawn from the RNAGym collection of RNA variant scans (doi:10.7554/elife.80360).

This listing pairs variants with measured self-cleavage.
B1: CPEB3 Ribozyme (parent)
chain: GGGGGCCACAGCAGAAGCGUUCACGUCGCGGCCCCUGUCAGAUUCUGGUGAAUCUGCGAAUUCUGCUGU

- Variants of: B1
- TEST DESCRIPTION: self-cleavage, relative activity (ratio to wild type); higher = more cleavage; co-transcriptional
MEASURED ATTRIBUTE: self-cleavage

- VARIANT STRING: "G37C C54G"
  READOUT VALUE: 0.164
- VARIANT STRING: "C18U G41C"
  READOUT VALUE: 0.211
- VARIANT STRING: "C33G U43A"
  READOUT VALUE: 0.299
- VARIANT STRING: "G19U C35A"
  READOUT VALUE: 0.119
- VARIANT STRING: "C24U C45U"
  READOUT VALUE: 0.829
- VARIANT STRING: "U20C G50C"
  READOUT VALUE: 0.102
- VARIANT STRING: "G19C C29U"
  READOUT VALUE: 0.112
- VARIANT STRING: "U38G G47C"
  READOUT VALUE: 0.201
- VARIANT STRING: "C33A G50U"
  READOUT VALUE: 0.893
- VARIANT STRING: "A13C A52G"
  READOUT VALUE: 0.823
- VARIANT STRING: "C54A U69G"
  READOUT VALUE: 1.01
- VARIANT STRING: "C12U U44A"
  READOUT VALUE: 0.954
- VARIANT STRING: "U62G U67G"
  READOUT VALUE: 0.841
- VARIANT STRING: "C12U U55A"
  READOUT VALUE: 0.756
- VARIANT STRING: "G50A G56C"
  READOUT VALUE: 0.675
- VARIANT STRING: "A8C A51C"
  READOUT VALUE: 0.981
- VARIANT STRING: "C6A C7G"
  READOUT VALUE: 0.0736
- VARIANT STRING: "G1C G50C"
  READOUT VALUE: 0.145
- VARIANT STRING: "C9G C54G"
  READOUT VALUE: 0.926
- VARIANT STRING: "C7A U46A"
  READOUT VALUE: 0.6
- VARIANT STRING: "C7A U69C"
  READOUT VALUE: 1
- VARIANT STRING: "G3U U46A"
  READOUT VALUE: 0.162
- VARIANT STRING: "U20G G25C"
  READOUT VALUE: 0.227
- VARIANT STRING: "C12G G14U"
  READOUT VALUE: 0.118
- VARIANT STRING: "C39G C66A"
  READOUT VALUE: 0.531
- VARIANT STRING: "G30U C45A"
  READOUT VALUE: 0.335
- VARIANT STRING: "C24U U38G"
  READOUT VALUE: 0.166
- VARIANT STRING: "C39G U49G"
  READOUT VALUE: 0.994
- VARIANT STRING: "U21C G48A"
  READOUT VALUE: 0.933
- VARIANT STRING: "A8C U67C"
  READOUT VALUE: 1
- VARIANT STRING: "U20A U26A"
  READOUT VALUE: 0.0885
- VARIANT STRING: "C9A G31A"
  READOUT VALUE: 1
- VARIANT STRING: "A15U U46A"
  READOUT VALUE: 0.985
- VARIANT STRING: "C9A G50A"
  READOUT VALUE: 1.02
- VARIANT STRING: "A16U U38G"
  READOUT VALUE: 0.272
- VARIANT STRING: "C29G C63G"
  READOUT VALUE: 0.183
- VARIANT STRING: "G3A A23U"
  READOUT VALUE: 0.79
- VARIANT STRING: "A23C A40C"
  READOUT VALUE: 0.544
- VARIANT STRING: "G19C A42C"
  READOUT VALUE: 0.153
- VARIANT STRING: "G50U G68U"
  READOUT VALUE: 1.02
- VARIANT STRING: "U44A A51G"
  READOUT VALUE: 0.936
- VARIANT STRING: "G28C A52G"
  READOUT VALUE: 0.174
- VARIANT STRING: "G3A G14U"
  READOUT VALUE: 0.29
- VARIANT STRING: "U20C C54A"
  READOUT VALUE: 0.156
- VARIANT STRING: "A13C U62C"
  READOUT VALUE: 0.475
- VARIANT STRING: "C39U C45A"
  READOUT VALUE: 0.759
- VARIANT STRING: "G11U U38G"
  READOUT VALUE: 0.178
- VARIANT STRING: "C35G G41A"
  READOUT VALUE: 0.294
- VARIANT STRING: "G28A C39G"
  READOUT VALUE: 0.157
- VARIANT STRING: "U21A G50U"
  READOUT VALUE: 0.971
- VARIANT STRING: "G50A C57A"
  READOUT VALUE: 0.448
- VARIANT STRING: "G31C A51C"
  READOUT VALUE: 0.161
- VARIANT STRING: "G19A A40G"
  READOUT VALUE: 0.17
- VARIANT STRING: "C6G U53G"
  READOUT VALUE: 0.136
- VARIANT STRING: "G14U G68C"
  READOUT VALUE: 0.779
- VARIANT STRING: "G47U G48U"
  READOUT VALUE: 1.01
- VARIANT STRING: "C29U U43G"
  READOUT VALUE: 0.168
- VARIANT STRING: "U49G U55A"
  READOUT VALUE: 0.968
- VARIANT STRING: "G37C A51G"
  READOUT VALUE: 0.205
- VARIANT STRING: "A8C G41C"
  READOUT VALUE: 0.757
- VARIANT STRING: "U26A G31C"
  READOUT VALUE: 0.18
- VARIANT STRING: "C9U U62A"
  READOUT VALUE: 0.997
- VARIANT STRING: "G28C C35G"
  READOUT VALUE: 0.17
- VARIANT STRING: "A15G G37C"
  READOUT VALUE: 0.239
- VARIANT STRING: "A51G C66G"
  READOUT VALUE: 0.84
- VARIANT STRING: "G37A U53A"
  READOUT VALUE: 0.303
- VARIANT STRING: "C34A C39A"
  READOUT VALUE: 0.346
- VARIANT STRING: "C34G A60C"
  READOUT VALUE: 0.331
- VARIANT STRING: "C39G U67G"
  READOUT VALUE: 0.965
- VARIANT STRING: "C18U G19A"
  READOUT VALUE: 0.144
- VARIANT STRING: "G4C C33G"
  READOUT VALUE: 0.98
- VARIANT STRING: "G48A A60G"
  READOUT VALUE: 0.916
- VARIANT STRING: "C27A G31U"
  READOUT VALUE: 0.165
- VARIANT STRING: "U21G G50A"
  READOUT VALUE: 0.488
- VARIANT STRING: "U26A U64C"
  READOUT VALUE: 0.72
- VARIANT STRING: "G30A C39A"
  READOUT VALUE: 0.362
- VARIANT STRING: "A60U U67G"
  READOUT VALUE: 0.615
- VARIANT STRING: "C22A C27A"
  READOUT VALUE: 0.158
- VARIANT STRING: "C34G A42U"
  READOUT VALUE: 0.544
- VARIANT STRING: "C6G U21A"
  READOUT VALUE: 0.246
- VARIANT STRING: "G17U G68C"
  READOUT VALUE: 0.818
- VARIANT STRING: "G1A U67G"
  READOUT VALUE: 0.0812
- VARIANT STRING: "G30A G41U"
  READOUT VALUE: 0.341
- VARIANT STRING: "G11U C34A"
  READOUT VALUE: 0.694
- VARIANT STRING: "U26C U69G"
  READOUT VALUE: 1.06
- VARIANT STRING: "C27G U43A"
  READOUT VALUE: 0.133
- VARIANT STRING: "C33G A51C"
  READOUT VALUE: 0.335
- VARIANT STRING: "G3U U38A"
  READOUT VALUE: 0.22
- VARIANT STRING: "A15U C29U"
  READOUT VALUE: 0.151
- VARIANT STRING: "C54A A59U"
  READOUT VALUE: 0.497
- VARIANT STRING: "G1C G4U"
  READOUT VALUE: 0.205
